experiment: chemical genetic growth profiling, strain panel (AID 1159580);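 further: tested at 20 µM; growth read once vehicle control cultures reached saturation at 30 °C; 1 = growth at the plate median or of vehicle wells; lower values mean less growth of the strain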; conditions: S. cerevisiae deletion strains, growth OD, locus YJL092W, strain hpr5, active compounds read low
Among all 5,500 compounds or so, about 2,000 (36%) were called active. Not shown: some 18% with an inconclusive outcome. The list shows a part of the results.
So I've got a bunch of compounds here, and I need their normalized growth values.
Enter a number only.

Q. Could you tell me which normalized growth is on file for CC(C)NNC(=O)c1ccncc1 ?
A. 1.01

Q. What do you get for C[C@H]1COC2=C1C(=O)C(=O)c1c2ccc2c1CCCC2(C)C ?
A. 0.871

Q. Please give the result for O=C(O)c1ccccc1-c1c2cc(Br)c(=O)cc-2oc2[c]([Hg])c(O)c(Br)cc12 too.
A. 1.04

Q. Same thing, different compound: Cc1c(S(=O)(=O)O)oc2c1C(=O)C(=O)c1c-2ccc2c1CCCC2(C)C
A. 0.956

Q. Repeat for the following compound: Cc1coc2c1C(=O)C(=O)c1c-2ccc2c1CCCC2(C)C
A. 0.94

Q. What do we get for C=C1CCC2C(CC2(C)C)C(=C)CC/C1=N\O (configuration not stated) ?
A. 0.996

Q. Now the compound C=C1CCC(C2CC(=O)OC2=O)C(=O)CCC2C1CC2(C)C (configuration not stated)
A. 1.02
